# target_desc: CYP2C9 (Homo sapiens (Human), UniProt P11712)
# Sequence (P11712 whole entry): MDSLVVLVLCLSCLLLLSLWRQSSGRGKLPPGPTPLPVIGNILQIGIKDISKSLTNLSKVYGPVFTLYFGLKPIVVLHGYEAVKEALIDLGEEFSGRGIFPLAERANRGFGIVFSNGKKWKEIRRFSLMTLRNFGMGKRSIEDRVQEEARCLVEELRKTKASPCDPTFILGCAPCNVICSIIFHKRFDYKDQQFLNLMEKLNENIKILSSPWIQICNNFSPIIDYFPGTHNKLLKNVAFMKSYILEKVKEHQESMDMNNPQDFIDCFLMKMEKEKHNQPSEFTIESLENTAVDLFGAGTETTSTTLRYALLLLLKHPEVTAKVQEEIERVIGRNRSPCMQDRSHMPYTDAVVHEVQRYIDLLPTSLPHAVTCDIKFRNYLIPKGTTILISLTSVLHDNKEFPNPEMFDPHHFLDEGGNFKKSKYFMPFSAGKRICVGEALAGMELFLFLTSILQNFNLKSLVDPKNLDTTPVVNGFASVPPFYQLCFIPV
# test_summary: CYP2C9 inhibition assay in pooled human liver microsomes
# Type: in vitro ADME
# details: NADPH, 37° C., diclofenac substrate, read-out: CYP 2C9 Inhibition IC50
parameter: IC50 (µM)

(1) O=C(c1ncc(Cl)cc1NS(=O)(=O)c1ccc(Cl)c(C(F)(F)F)c1)c1ncnc2[nH]ccc12
(2) O=C(C1=CC=NC2NC=CC12)c1ncc(Cl)cc1NS(=O)(=O)c1ccc(Cl)c(C(F)(F)F)c1 (centres unmarked)
Prompt line: Lab note: check whether 1 or 2 has the lower measured IC50. # respond with the chosen item's label
Response line: 2
(2: 3 µM, 1: 15 µM)
